All figures here come from patent US7825103B2.

Structures can show the parent of a compound that is named as a salt.
Overview of reported melting point across a group of molecules:

# Molecule, melting point
data = [
    ("N#C[C@H]1[C@H](O)[C@@H](CO[Si](c2ccccc2)(c2ccccc2)c2ccccc2)O[C@H]1n1ccc(N)nc1=O", "203 °C (dec.)"),
    ("CC(C)C(C)(C)[Si](C)(C)O[C@H]1[C@H](C#N)[C@H](n2ccc(N)nc2=O)O[C@@H]1CO [Example 19]", "159 to 161 °C"),
    ("CC(C)[C@H](N)C(=O)OC[C@H]1O[C@@H](n2ccc(N)nc2=O)[C@@H](C#N)[C@@H]1O[Si](C)(C)C(C)(C)C (as salt: trifluoroacetate)", "118 to 120 °C"),
    ("CC(C)[Si](O[C@H]1[C@H](C#N)[C@H](n2ccc(N)nc2=O)O[C@@H]1CO)(C(C)C)C(C)C", "162 to 163 °C"),
    ("CC(C)C(C)(C)[Si](C)(C)OC[C@H]1O[C@@H](n2ccc(N)nc2=O)[C@H](C#N)[C@@H]1O", "187 to 187.5 °C"),
    ("CC(C)C(C)(C)[Si](C)(C)O[C@H]1[C@H](C#N)[C@H](n2ccc(N)nc2=O)O[C@@H]1CO.O=C(O)C(F)(F)F", "151 to 154 °C"),
    ("CCCCCCCC[Si](C)(C)OC[C@H]1O[C@@H](n2ccc(N)nc2=O)[C@@H](C#N)[C@@H]1O", "142 °C"),
]
